Target: T1, Recombinant human Dok2 PTB domain (amino acids 133-259) (human, UniProt O60496 133-259)
T1 sequence (looked up): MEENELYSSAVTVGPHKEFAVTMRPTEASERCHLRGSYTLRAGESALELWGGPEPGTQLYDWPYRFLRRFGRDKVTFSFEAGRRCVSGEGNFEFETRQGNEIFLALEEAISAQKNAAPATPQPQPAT
Assay: SPR
Non-standard residues stand in square brackets, D forms with d. No end group written: not given here. *: point of attachment. Biotin = O=C1N[C@H]2[C@H](CS[C@H]2CCCCC(=O)*)N1; pY = N[C@@H](Cc1ccc(OP(=O)(O)O)cc1)C(=O)O
Measured Quantity: Kd

{"Binder": "Biotin-TEIINPN[pY]MGVGP [SHIP pY917 peptide]", "Val": "> 30 µM"}
